Recorded %Inh, one value per entry.
- Tested on: RPS6KA5(Kin.Dom.1-N-terminal);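 also: KINOMEscan kinase panel screen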
- condition_context: concentration: 1 μM,replicates: in singlicate; n = 1

compound: Cc1ccc2c(-c3ccnc(Nc4ccc(C(F)(F)F)cc4)n3)cnn2n1
measurement_unit: %
%Inh: 0

compound: Cn1ccc2ncnc(Oc3ccc(NC(=O)Nc4cncc(C(F)(F)F)c4)c(Cl)c3)c21
measurement_unit: %
%Inh: 83

compound: Cn1ccc2ncnc(Oc3ccc(NC(=O)Nc4cc(C(C)(C)C)on4)c(Cl)c3)c21
measurement_unit: %
%Inh: 0

compound: CC(C)c1nc(-c2cccc(NS(=O)(=O)c3ccccc3)c2)c(-c2ccnc(Nc3ccc4c(c3)CN(C)CC4)n2)s1
measurement_unit: %
%Inh: 4

compound: C[C@@H]1CNc2c(sc3ccc4nc(-c5ccc(O)cc5)ccc4c23)C(=O)N1
measurement_unit: %
%Inh: 2

compound: CN(c1ccccc1CNc1nc(Nc2ccc3c(c2)CC(=O)N3)ncc1C(F)(F)F)S(C)(=O)=O
measurement_unit: %
%Inh: 71

compound: O=C(Nc1ccccc1)c1cccc(Oc2ccc3nccn3n2)c1
measurement_unit: %
%Inh: 0

compound: Cn1ccc2ncnc(Oc3ccc(NC(=O)Nc4cccc(C(F)(F)F)c4)c(F)c3)c21
measurement_unit: %
%Inh: 0

compound: CN1CCN(CCNc2nc3cc(Oc4ccc(NC(=O)Nc5cc(C(F)(F)F)ccc5F)cc4)ccc3[nH]2)CC1.Cl.Cl
measurement_unit: %
%Inh: 0

compound: COC(=O)c1cccc(NC(=O)NC2CCN(c3ccnc(Nc4cc(OC)c(OC)c(OC)c4)n3)C2)c1 (stereo not shown)
measurement_unit: %
%Inh: 0

compound: COC(=O)Nc1nc2cc(Oc3ccc(NC(=O)Nc4cc(C(F)(F)F)ccc4Cl)cc3)ccc2[nH]1.Cl
measurement_unit: %
%Inh: 14

compound: Nc1nccc(-c2ccc3c(N)n[nH]c3c2)n1
measurement_unit: %
%Inh: 7

compound: CCn1c(-c2nonc2N)nc2cncc(CNC3CCNCC3)c21.Cl
measurement_unit: %
%Inh: 78

compound: C[C@@H](Oc1cc(-n2cnc3cc(-c4cnn(C)c4)ccc32)sc1C(N)=O)c1ccccc1Cl
measurement_unit: %
%Inh: 5

compound: O=C(Nc1ccc(Oc2ccc3nc(NC(=O)C4CC4)cn3n2)c(F)c1)c1cccn(-c2ccccc2)c1=O
measurement_unit: %
%Inh: 0

compound: O=C(NOCC1CC1)c1cc(Br)c(F)c(F)c1Nc1ccc(I)cc1Cl
measurement_unit: %
%Inh: 0

compound: Cc1ccc(CC(=O)N2CCc3cc(-c4cn(C)c5ncnc(N)c45)ccc32)cc1
measurement_unit: %
%Inh: 3

compound: CCCC(=O)Nc1n[nH]c2ncccc12
measurement_unit: %
%Inh: 0

compound: O=C(NCC1CC1)c1ccc(-c2cc(C(=O)NC3CC3)ccc2F)cc1
measurement_unit: %
%Inh: 0

compound: CS(=O)(=O)Nc1ccc(-c2ccnc3[nH]ccc23)cc1
measurement_unit: %
%Inh: 0

compound: Cn1cc(-c2cccc3c(N)c(C(N)=O)nnc23)cn1
measurement_unit: %
%Inh: 21

compound: CC(=O)c1c(-c2ccncc2)[nH]c(-c2ccncc2)c1C
measurement_unit: %
%Inh: 0

compound: C[C@@H]1CNc2c(sc3ccc4nc(-c5ccncc5)ccc4c23)C(=O)N1
measurement_unit: %
%Inh: 0

compound: CCOC(=O)N1CCC(n2cnc(-c3ccc(F)cc3)c2-c2ccnc(N)n2)CC1
measurement_unit: %
%Inh: 1

compound: C[C@@H](Oc1cc(-n2cnc3cc(-c4ccncc4)ccc32)sc1C(N)=O)c1ccccc1Cl
measurement_unit: %
%Inh: 9
